Every entry's value here was drawn from paper PMC10739246.

- Test system: B. subtilis DSM402
- measurement context: Table 2; cells treated with 1x MIC
Label 1 (yes) when μM (concentration used, 1x MIC) >= 2 µM; otherwise 0 (no).

Completed entries (count: 5):
Prompt: Does μM (concentration used, 1x MIC) meet or surpass 2 µM for CN[C@H](CC(C)C)C(=O)N[C@H]1C(=O)N[C@@H](CC(N)=O)C(=O)N[C@H]2C(=O)N[C@H]3C(=O)N[C@H](C(=O)N[C@H](C(=O)O)c4cc(O)cc(O)c4-c4cc3ccc4O)[C@H](O)c3ccc(c(Cl)c3)Oc3cc2cc(c3O[C@@H]2O[C@H](CO)[C@@H](O)[C@H](O)[C@H]2O[C@H]2C[C@](C)(N)[C@H](O)[C@H](C)O2)Oc2ccc(cc2Cl)[C@H]1O [Van, vancomycin, reference compound] ?
Response: 0 (no)

Prompt: Another: CCn1cc(C(=O)O)c(=O)c2cc(F)c(N3CCN(CN4C(=O)C(=O)c5cc(F)ccc54)CC3)cc21 [20a]
Response: 1 (yes)

Prompt: Try this compound next: `C[C@@H]1O[C@@H]1P(=O)(O)O`
Response: 1 (yes)

Prompt: Same question for `CCn1cc(C(=O)O)c(=O)c2cc(F)c(N3CCN(CNc4ccc([N+](=O)[O-])cc4)CC3)cc21` please.
Response: 1 (yes)

Prompt: And the next one, `N[C@@H]1CON=C1O` ?
Response: 1 (yes)

***
Prompt: Say whether `CCn1cc(C(=O)O)c(=O)c2cc(F)c(N3CCN(C(=O)CCl)CC3)cc21` shows μM (concentration used, 1x MIC) of 2 µM or more.
Response: 0 (no)

Prompt: Again, but for CCn1cc(C(=O)O)c(=O)c2cc(F)c(N3CCNCC3)cc21 [Nor, norfloxacin, reference compound]
Response: 1 (yes)
